MEASUREMENT_TARGET: Transthyretin (Homo sapiens) (UniProt P02766)
ASSAY_DETAILS: Concentration at which 50% total binding to prealbumin protein.
RECORDED_METRIC: Concentration (nM)

Worked set:
Task: // query Concentration value for entry NC(Cc1cc(I)c(-c2cc(I)c(O)c(I)c2)c(I)c1)C(=O)O (racemic)
Output: 3

Task: // query Concentration value for entry "Oc1c(Cl)cc(-c2cc(Cl)c(O)c(Cl)c2)cc1Cl"
Output: 1.5

I: O=C(O)c1cc(I)c(-c2cc(I)c(O)c(I)c2)c(I)c1
II: Oc1ccc(-c2c(Cl)c(Cl)c(O)c(Cl)c2Cl)cc1
Task: Choose between I and II : whose measured Concentration value is numerically larger? Give the label of your selection.
Output: II

###

This document collects Binding affinity values reported for Transthyretin (Homo sapiens).
RECORDED_METRIC: Binding affinity

Worked set:
Task: // query Binding affinity value for entry "Clc1cc(-c2cc(Cl)c(Cl)c(Cl)c2)cc(Cl)c1Cl"
Output: 313

Task: // query Binding affinity value for entry "Oc1c(Cl)cc(-c2ccc(Cl)cc2)cc1Cl"
Output: 501

I: Oc1c(Cl)cc(Cl)cc1-c1ccccc1
II: NC(Cc1cc(I)c(Oc2cc(I)c(O)c(I)c2)c(I)c1)C(=O)O (stereo not given)
III: N[C@@H](Cc1cc(I)c(Oc2ccc(O)c(I)c2)c(I)c1)C(=O)O
Task: Ordering: ascending Binding affinity. Give the labels in the order specified.
Output: III, I, II

###

This document collects Binding affinity values reported for Transthyretin (Homo sapiens) (UniProt P02766).
Would you mind answering with just the numeric figure?

Worked set:
Task: # query: Binding affinity | item "Oc1c(Cl)cc(-c2cc(Cl)c(O)c(Cl)c2)cc1Cl" | system: Transthyretin (Homo sapiens) (UniProt P02766)
Output: 661

Task: # query: Binding affinity | item "Oc1c(Cl)cc(-c2ccccc2)cc1Cl" | system: Transthyretin (Homo sapiens) (UniProt P02766)
Output: 851

As a next step, examine the molecule that follows.
Task: # query: Binding affinity | item "Clc1cc(Cl)cc(-c2cc(Cl)cc(Cl)c2)c1" | system: Transthyretin (Homo sapiens) (UniProt P02766)
Output: 411
